The measured values listed here are drawn from patent US20080152587A1.

- Experimental System: human urokinase-type plasminogen activator receptor (uPAR, CD87), cell-bound (human, UniProt Q03405 23-305)
- Sequence (Q03405 23-305): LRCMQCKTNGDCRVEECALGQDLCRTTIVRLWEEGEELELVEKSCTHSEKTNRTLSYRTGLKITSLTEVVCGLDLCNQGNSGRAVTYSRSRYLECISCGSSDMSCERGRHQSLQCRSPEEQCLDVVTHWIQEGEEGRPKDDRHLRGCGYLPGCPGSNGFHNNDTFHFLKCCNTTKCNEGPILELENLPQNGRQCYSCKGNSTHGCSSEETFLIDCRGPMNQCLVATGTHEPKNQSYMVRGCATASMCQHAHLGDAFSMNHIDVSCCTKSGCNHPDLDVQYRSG
- Procedure Text: cell-based or functional assay
Endpoint Name: inhibition of plasminogen activation on U937 cells

What the record says about fully human monoclonal antibody 4.18.1 (ATCC Accession Number PTA-7476) (antibody, V domains shown) VH: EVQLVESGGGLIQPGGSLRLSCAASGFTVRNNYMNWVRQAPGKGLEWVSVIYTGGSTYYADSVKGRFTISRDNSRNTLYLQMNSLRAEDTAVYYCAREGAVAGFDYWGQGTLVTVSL VL: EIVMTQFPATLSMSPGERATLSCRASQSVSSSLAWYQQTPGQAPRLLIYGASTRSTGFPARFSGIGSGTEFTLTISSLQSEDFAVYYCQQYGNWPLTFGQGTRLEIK : inhibition of plasminogen activation on U937 cells is > 90%
